Molecular target: ATX (Homo sapiens, UniProt Q13822)
Test: ATX inhibition assay with FS-3 substrate
Format: biochemical
Design: conditioned serum-free medium (CCM) from MDA-MB-435 cells as the source of ATX; endogenous in cells; host or cells: MDA-MB-435 cells (about 10x concentrated serum-free conditioned medium)
Details: Table 2; same values as % Response at 10 μM
single dose response comparison by aromatic substituent and position of 70 or higher: Y. Under 70: N.

Recorded results for 6 compounds are shown here.
CCn1cc(C(=O)O)c(=O)c2cnc(N3CCN(C(=S)Nc4cccc(Cl)c4)CC3)nc21 = N
CCn1cc(C(=O)O)c(=O)c2cnc(N3CCN(C(=S)Nc4ccccc4Cl)CC3)nc21 = Y
CCn1cc(C(=O)O)c(=O)c2cnc(N3CCN(C(=S)Nc4ccc(Cl)cc4)CC3)nc21 = N
CCn1cc(C(=O)O)c(=O)c2cnc(N3CCN(C(=S)Nc4ccc(OC)cc4)CC3)nc21 = Y
CCn1cc(C(=O)O)c(=O)c2cnc(N3CCN(C(=S)Nc4ccccc4C(F)(F)F)CC3)nc21 = Y
CCn1cc(C(=O)O)c(=O)c2cnc(N3CCN(C(=S)Nc4ccccc4F)CC3)nc21 = Y

In: Dear colleague, could you confirm whether CCn1cc(C(=O)O)c(=O)c2cnc(N3CCN(C(=S)Nc4ccccc4OC)CC3)nc21 has single dose response comparison by aromatic substituent and position at or above 70?
Out: Y

In: Consider next the compound CCn1cc(C(=O)O)c(=O)c2cnc(N3CCN(C(=S)Nc4cccc(I)c4)CC3)nc21 in the same way.
Out: N

In: Consider next the compound CCn1cc(C(=O)O)c(=O)c2cnc(N3CCN(C(=S)Nc4cccc(OC)c4)CC3)nc21 in the same way.
Out: N

In: Consider next the compound CCn1cc(C(=O)O)c(=O)c2cnc(N3CCN(C(=S)Nc4ccc(I)cc4)CC3)nc21 in the same way.
Out: N

----------
Target: ATX (Homo sapiens, UniProt Q13822)
Test: ATX inhibition assay with FS-3 substrate
Type: biochemical
Set-up: conditioned serum-free medium (CCM) from MDA-MB-435 cells as the source of ATX; endogenous in cells; host or cells: MDA-MB-435 cells (about 10x concentrated serum-free conditioned medium)
Conditions: 10 μM compound; FS-3 hydrolysis normalized to vehicle control (low = strong inhibition); mean ± S.D.
Experimental Endpoint: % Response at 10 μM (FS-3) (%)
Answer with a number only, understood to be in %.

Examples with their reported % Response at 10 μM (FS-3) follow.
CCn1cc(C(=O)O)c(=O)c2cnc(N3CCN(C(=S)Nc4cc(C)cc(C)c4)CC3)nc21 = 30.4
CCn1cc(C(=O)O)c(=O)c2cnc(N3CCN(C(=S)Nc4ccccc4C(=O)OC)CC3)nc21 = 51.2
CCn1cc(C(=O)O)c(=O)c2cnc(N3CCN(C(=S)Nc4ccccc4C(F)(F)F)CC3)nc21 = 100.8
CCn1cc(C(=O)O)c(=O)c2cnc(N3CCN(C(=S)Nc4ccc(OC)cc4)CC3)nc21 = 79.7

In: Name the recorded % Response at 10 μM (FS-3) for CCn1cc(C(=O)O)c(=O)c2cnc(N3CCN(C(=S)Nc4cccc(C(F)(F)F)c4)CC3)nc21 .
Out: 0.3

In: Consider next the compound CCn1cc(C(=O)O)c(=O)c2cnc(N3CCN(C(=S)Nc4ccccc4OC)CC3)nc21 in the same way.
Out: 97.6

In: Consider next the compound CCn1cc(C(=O)O)c(=O)c2cnc(N3CCN(C(=S)Nc4ccccc4-c4cccc5nsnc45)CC3)nc21 in the same way.
Out: 63.2

In: Consider next the compound CCn1cc(C(=O)O)c(=O)c2cnc(N3CCN(C(=S)Nc4cccc(Cl)c4Cl)CC3)nc21 in the same way.
Out: 72.3

In: Consider next the compound CCn1cc(C(=O)O)c(=O)c2cnc(N3CCN(C(=S)Nc4cccc(Cl)c4)CC3)nc21 in the same way.
Out: 9.7

In: Consider next the compound CCn1cc(C(=O)O)c(=O)c2cnc(N3CCN(C(=S)Nc4cccc(I)c4)CC3)nc21 in the same way.
Out: 8.6

In: Consider next the compound CCn1cc(C(=O)O)c(=O)c2cnc(N3CCN(C(=S)Nc4cccc(OC)c4)CC3)nc21 in the same way.
Out: 40.9

In: Consider next the compound CCn1cc(C(=O)O)c(=O)c2cnc(N3CCN(C(=S)Nc4ccc(C)cc4)CC3)nc21 in the same way.
Out: 49.9

In: Consider next the compound CCn1cc(C(=O)O)c(=O)c2cnc(N3CCN(C(=S)Nc4ccc5nsnc5c4)CC3)nc21 in the same way.
Out: 28.6

In: Consider next the compound CCn1cc(C(=O)O)c(=O)c2cnc(N3CCN(C(=S)Nc4ccc(I)cc4)CC3)nc21 in the same way.
Out: 32.7

In: Consider next the compound CCn1cc(C(=O)O)c(=O)c2cnc(N3CCN(C(=S)Nc4ccc(Cl)cc4)CC3)nc21 in the same way.
Out: 42.4

In: Consider next the compound CCn1cc(C(=O)O)c(=O)c2cnc(N3CCN(C(=S)Nc4ccc(C(F)(F)F)cc4)CC3)nc21 in the same way.
Out: 36.2

Values were extracted from patent US8497371B2.
